# EXPERIMENTAL PROTOCOL: NCI Yeast Anticancer Drug Screen. Data for the mec2-1 strain (AID 157)
# DETAILS: S. cerevisiae mec2-1 strain, at 50.0 µM (retest, dose inferred, filed as 5.0)
# Method: Growth inhibition of yeast strains with defined genetic alterations is measured as a screen for potential anti-cancer activity. Selected strains with alterations in DNA damage repair or cell cycle control were exposed to compounds and growth inhibition was measured relative to vehicle treated controls. The strain used in this assay is mec2-1
This is part of a sample that, as a whole, favours compounds with a hit. Of some 79,000 tested, about 15% had one in any assay. Activity calls are given as the source filed them. Cut-off read from the data, not from the text of the source: active = growth inhibition above about 70%; inactive = the rest.
The reply should name one outcome from y (active), n (inactive)

Consider the worked cases shown below.
- COMPOUND: "CC1=C(SCc2ccccc2)C(=O)c2ccccc2C1=O"
  CATEGORY LABEL: "y"
- COMPOUND: "O=C(O)c1cc2ccc(Cl)cc2c(O)c1C1=CCCCC1"
  CATEGORY LABEL: "n"
- COMPOUND: "Cc1cccc[n+]1C1CCc2c(ccc3ccccc23)C1=O (configuration not stated)"
  CATEGORY LABEL: "y"
- COMPOUND: "CCCCC(CC)C(=O)[O][Sn]([CH2]CCC)([CH2]CCC)[O]C(=O)C(CC)CCCC (configuration not stated)"
  CATEGORY LABEL: "n"
- COMPOUND: "COC(C(O)CO)C(O)C(O)C(=O)NNc1ccccc1 (configuration not stated)"
  CATEGORY LABEL: "y"

Q: Kindly provide the recorded test outcome for the following compound: C[C](C)(C)[Ge]([O][Ge]([c]1ccccc1)[c]1ccccc1)([O][Ge]([c]1ccccc1)[c]1ccccc1)[C](C)(C)C
Ans: y

Q: Fill in: this test's call for COC1=C(OC)C(=O)C(Sc2ccc3ccccc3c2)=CC1=O is ___
Ans: y

Q: // param item: CCC1(OC(=O)CN2CCN(CCO)CC2)C(=O)OCc2c1cc1n(c2=O)Cc2cc3ccccc3nc2-1 (configuration not stated) ; yields the recorded call
Ans: n

Q: Hi, sorry to bother you, what did the test record for Nc1nc2ccc(NCc3ccc(C(=O)NC(CCC(=O)O)C(=O)O)cc3)cc2c(=O)[nH]1 (configuration not stated) ?
Ans: y

Q: Could you check what this test reported for CC(=O)Nc1ccc(/C=C/[N+](=O)[O-])cc1 ?
Ans: n
